Tested on: Enterococcus faecalis (VRE)
Positions of bridges follow the written chain, without caps; N, C: chain ends. Non-standard residues stand in square brackets, D forms with d. Residues, ends and D or L forms follow the SMILES beside them. *: point of attachment. Hexanoyl(3-OH,5-Me) = CC(C)CC(O)CC(=O)*; dNMeF = CN[C@H](Cc1ccccc1)C(=O)O
Quick list: MIC per entry.
Give your result in µg/mL as a bare value.

Please review the following examples before continuing.
compound | assay.target | parameter | quantitative.readout
CC[C@H](C)[C@@H]1NC(=O)[C@@H](Cc2c[nH]c3ccccc23)NC(=O)[C@@H](CCC(N)=O)NC(=O)[C@H](CCC(=O)O)NC(=O)[C@@H](CCCNC(=N)N)NC(=O)[C@H](CC(C)C)NC(=O)[C@@H](Cc2ccccc2)N(C)C(=O)CNC(=O)[C@H](CO)NC(=O)[C@@H](CCCNC(=N)N)NC(=O)[C@@H](NC(=O)CC(O)CCCC(C)C)[C@@H](C)OC(=O)[C@H]([C@@H](C)O)NC1=O (single isomer, unassigned) [Peak P8] | Enterococcus faecalis (VRE) | MIC | 25
CC[C@H](C)[C@@H]1NC(=O)[C@@H](Cc2c[nH]c3ccccc23)NC(=O)[C@@H](CCC(N)=O)NC(=O)[C@H](CCC(=O)O)NC(=O)[C@@H](CCCNC(=N)N)NC(=O)[C@H](CC(C)C)NC(=O)[C@@H](Cc2ccccc2)N(C)C(=O)CNC(=O)[C@H](CO)NC(=O)[C@@H](CCCNC(=N)N)NC(=O)[C@@H](NC(=O)CC(O)CCCC(C)C)[C@@H](C)OC(=O)[C@H]([C@@H](C)O)NC1=O (single isomer, unassigned) [Peak P9] | Enterococcus faecalis (VRE) | MIC | 12.5
CC(C)CC(O)CC(=O)N[C@@H]1C(=O)N[C@H](CCCNC(=N)N)C(=O)N[C@@H](CO)C(=O)NCC(=O)N(C)[C@H](Cc2ccccc2)C(=O)N[C@@H](CC(C)C)C(=O)N[C@H](CCCNC(=N)N)C(=O)N[C@@H](CCC(=O)O)C(=O)N[C@H](CCC(N)=O)C(=O)N[C@H](Cc2c[nH]c3ccccc23)C(=O)N[C@@H](C(C)C)C(=O)N[C@@H]([C@@H](C)O)C(=O)O[C@@H]1C (stereo partly drawn) [Peak P2] ({Hexanoyl(3-OH,5-Me)}-T[dR]SG[dNMeF]L[dR]E[dQ][dW]VT; ester 1-C) | Enterococcus faecalis (VRE) | MIC | 50

Challenge: Form entry - test system: Enterococcus faecalis (VRE); read-out: MIC; compound: CC[C@H](C)[C@@H]1NC(=O)[C@@H](Cc2c[nH]c3ccccc23)NC(=O)[C@@H](CCC(N)=O)NC(=O)[C@H](CCC(=O)O)NC(=O)[C@@H](CCCNC(=N)N)NC(=O)[C@H](CC(C)C)NC(=O)[C@@H](Cc2ccccc2)NC(=O)CNC(=O)[C@H](CO)NC(=O)[C@@H](CCCNC(=N)N)NC(=O)[C@@H](NC(=O)CC(O)CCCC(C)C)[C@@H](C)OC(=O)[C@H]([C@@H](C)O)NC1=O (single isomer, unassigned) [Peak P4]
Response given: 25
